The reader will find reported half-life at […], 1 µM values listed item by item below.
test: Metabolic stability in mouse liver microsome assessed as half life at 1 uM incubated upto 45 mins in presence of NADPH-regenerating system by LC-MS analysis; format: ADME; conditions: liver microsomes

{"columns": ["compound", "observed.result"],
 "data": [
  ["Cc1cc(OCc2nnc(SC3CCNCC3)n2-c2cccnc2)ccc1-c1ccc(S(C)(=O)=O)cc1", "> 60 min"]
]}

Field: next compound
Entry Cc1cc(OCc2nnc(SC3CCC(F)(F)CC3)n2-c2cccnc2)ccc1-c1ccc(S(C)(=O)=O)cc1 — recorded half-life at […], 1 µM = < 10 min
